The reported measurements were obtained from patent US20260242735A1.

Assay Target: human CD33 K146A (human, UniProt P20138 18-364)
Sequence (P20138 18-364 K146A limits assumed): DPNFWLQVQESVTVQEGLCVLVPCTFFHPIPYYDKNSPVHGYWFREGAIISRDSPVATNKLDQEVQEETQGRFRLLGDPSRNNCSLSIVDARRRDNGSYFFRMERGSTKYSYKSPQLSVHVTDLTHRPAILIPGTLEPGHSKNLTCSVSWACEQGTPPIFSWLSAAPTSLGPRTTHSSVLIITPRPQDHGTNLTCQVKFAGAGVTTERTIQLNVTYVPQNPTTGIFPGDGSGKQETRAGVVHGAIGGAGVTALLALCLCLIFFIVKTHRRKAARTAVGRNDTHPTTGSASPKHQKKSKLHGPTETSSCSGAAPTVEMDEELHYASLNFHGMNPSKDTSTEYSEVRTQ
Assay Details: flow cytometry on HEK293-T, alanine scan
Would you kindly list Mean % WT Binding for each of these binders?
# unit: % WT binding | format: bare number

Request: State the recorded Mean % WT Binding for this entry: Refmab #4 (antibody, V domains shown, The alanine scan used IgG or Fab) VH: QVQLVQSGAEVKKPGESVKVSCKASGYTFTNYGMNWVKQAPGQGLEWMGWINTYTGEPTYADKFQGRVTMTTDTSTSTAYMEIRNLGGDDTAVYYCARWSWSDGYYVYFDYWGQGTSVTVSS VL: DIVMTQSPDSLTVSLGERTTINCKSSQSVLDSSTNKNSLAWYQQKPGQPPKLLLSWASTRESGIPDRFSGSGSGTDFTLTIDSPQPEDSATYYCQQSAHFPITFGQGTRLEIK
Response: 122

Request: State the recorded Mean % WT Binding for this entry: Refmab #2 (antibody, V domains shown, The alanine scan used IgG or Fab) VH: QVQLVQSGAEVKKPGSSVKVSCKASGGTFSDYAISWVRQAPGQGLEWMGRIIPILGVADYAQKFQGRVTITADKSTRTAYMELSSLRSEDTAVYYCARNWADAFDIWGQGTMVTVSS VL: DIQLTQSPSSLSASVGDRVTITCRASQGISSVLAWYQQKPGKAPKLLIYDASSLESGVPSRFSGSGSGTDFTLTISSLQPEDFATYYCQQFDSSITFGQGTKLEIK
Response: 115

Request: State the recorded Mean % WT Binding for this entry: Refmab #1 (antibody, V domains shown, The alanine scan used IgG or Fab; also called hP67.6) VH: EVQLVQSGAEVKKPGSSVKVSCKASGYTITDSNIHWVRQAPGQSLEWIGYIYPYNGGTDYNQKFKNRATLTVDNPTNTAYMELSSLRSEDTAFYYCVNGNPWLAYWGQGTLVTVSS VL: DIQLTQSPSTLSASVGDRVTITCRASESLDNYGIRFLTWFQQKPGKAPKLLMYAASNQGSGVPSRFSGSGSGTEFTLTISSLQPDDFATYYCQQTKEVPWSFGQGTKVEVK
Response: 78.5
